- measurement description: Lab soil pesticide release testing
- Assay type: physicochemical
- experimental context: Example 4 material; 0 days (initial content); HPLC, LoQ 0.25 g/ha
Lab note: compare Pesticide content of fumigant-free soil disinfestation materials after set time on Soil with 400 g/ha, writing True if less and False if equal or more.

See these solved cases before continuing.
>>> label("COCC(=O)N(c1c(C)cccc1C)[C@H](C)C(=O)OC [Mefenoxam]")
"True"
>>> label("CSc1nnc(C(C)(C)C)c(=O)n1N [Metribuzin]")
"True"
>>> label("CCc1cccc(C)c1N(C(=O)CCl)[C@@H](C)COC [s-metolachlor]")
"False"

Ask: Below 400 g/ha on Pesticide content of fumigant-free soil disinfestation materials after set time on Soil? Entry O=C(NCc1ncc(C(F)(F)F)cc1Cl)c1c(Cl)cccc1Cl [Fluopicolide]
Reply: False

Ask: Next entry: O=S(=O)(CCC(F)=C(F)F)c1ncc(Cl)s1 [Fluensulfone]
Reply: False

====

- measurement description: Lab soil pesticide release testing
- Format: physicochemical
- experimental context: Example 4 material; 21 days on humid soil; HPLC, LoQ 0.25 g/ha
parameter measured: Pesticide content of fumigant-free soil disinfestation materials after set time on Soil

>>> data_value("O=S(=O)(CCC(F)=C(F)F)c1ncc(Cl)s1")
"0 g/ha"
>>> data_value("CCc1cccc(C)c1N(C(=O)CCl)[C@@H](C)COC")
"0 g/ha"
>>> data_value("CSc1nnc(C(C)(C)C)c(=O)n1N")
"0 g/ha"

Ask: Look up Pesticide content of fumigant-free soil disinfestation materials after set time on Soil for this molecule: COCC(=O)N(c1c(C)cccc1C)[C@H](C)C(=O)OC
Reply: 0 g/ha

Ask: Next entry: O=C(NCc1ncc(C(F)(F)F)cc1Cl)c1c(Cl)cccc1Cl [Fluopicolide]
Reply: 15 g/ha

====

- measurement description: Lab soil pesticide release testing
- Format: physicochemical
- experimental context: Example 2 material; 0 days (initial content); HPLC, LoQ 0.25 g/ha
- Description: 200 g of dry soil is placed in rectangular thin layer chromatography chamber of 27×7×26 cm with lid and 20 g water is added to the soil. […] After the set contact time with the soil the film sample is removed, moisture is dabbed off, loose dirt is brushed off and then the sample is dried at 60 C in an oven for 10 min. […] The flask is capped, stirred for 4 hours and the methanolic solution is then analyzed by HPLC. […]
Each item that follows carries a reported Pesticide content of fumigant-free soil disinfestation materials after set time on Soil.
Provide only the numeric value, understood in g/ha.

>>> data_value("CNC(=O)O/N=C(\\SC)C(=O)N(C)C")
1800
>>> data_value("CO/C=C(/C(=O)OC)c1ccccc1Oc1cc(Oc2ccccc2C#N)ncn1")
96
>>> data_value("COCC(=O)N(c1c(C)cccc1C)C(C)C(=O)OC (centres unmarked) [Metalaxyl]")
936

Ask: Look up Pesticide content of fumigant-free soil disinfestation materials after set time on Soil for this compound: N#Cc1c[nH]cc1-c1cccc2c1OC(F)(F)O2
Reply: 244

Ask: Next entry: COC(=O)c1c(Cl)nn(C)c1S(=O)(=O)NC(=O)Nc1nc(OC)cc(OC)n1
Reply: 35

====

Each item that follows carries a reported Pesticide content of fumigant-free soil disinfestation materials after set time on Soil.
- measurement description: Lab soil pesticide release testing
- Type: physicochemical
- experimental context: Example 3 material; 7 days on humid soil; HPLC, LoQ 0.25 g/ha
Provide only the numeric value, understood in g/ha.

Example entries and their recorded answers appear below.
>>> data_value("CON=C(C(=O)OC)c1ccccc1CON=C(C)c1cccc(C(F)(F)F)c1")
65
>>> data_value("Cc1nn(-c2cc(NS(C)(=O)=O)c(Cl)cc2Cl)c(=O)n1C(F)F")
15

Please turn your attention to the following entry.
Ask: Look up Pesticide content of fumigant-free soil disinfestation materials after set time on Soil for this compound: O=C(NCCc1ncc(C(F)(F)F)cc1Cl)c1ccccc1C(F)(F)F
Reply: 0
